Target: human PD-L1 (human) (UniProt Q9NZQ7)
Sequence (Q9NZQ7 19-290): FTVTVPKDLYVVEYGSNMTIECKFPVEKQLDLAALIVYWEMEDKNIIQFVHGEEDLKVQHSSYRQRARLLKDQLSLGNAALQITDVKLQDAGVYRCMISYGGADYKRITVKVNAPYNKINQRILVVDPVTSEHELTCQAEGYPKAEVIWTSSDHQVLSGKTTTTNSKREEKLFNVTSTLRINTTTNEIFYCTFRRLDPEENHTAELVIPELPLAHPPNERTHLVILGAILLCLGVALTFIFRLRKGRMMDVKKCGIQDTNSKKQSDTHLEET
Test: flow cytometry, CHO cells stably expressing PD-L1
Value type: Fold change to WT CD80 (fold)

P: variant CD80 IgV-Fc A26E/E35D/V68M/D90G (Fc fusion) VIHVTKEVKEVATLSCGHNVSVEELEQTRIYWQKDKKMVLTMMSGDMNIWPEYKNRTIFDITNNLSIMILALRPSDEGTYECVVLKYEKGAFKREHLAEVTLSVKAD
Q: variant CD80 IgV-Fc H18Y/V68M/A71G/D90G (Fc fusion) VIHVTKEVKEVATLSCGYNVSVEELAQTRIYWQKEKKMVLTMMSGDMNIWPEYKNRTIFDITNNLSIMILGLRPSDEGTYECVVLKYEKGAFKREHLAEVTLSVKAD
IN: Form field 'greater Fold change to WT CD80' accepts P or Q ; which applies? State the label of the item chosen.
OUT: Q
(Q: 703 fold, P: 160 fold)
